List of growth AUC values.
# Test system: Escherichia coli ED1a
# Assay Details: growth AUC relative to DMSO control (median of replicates) (fraction); higher = more growth (less inhibition), active = hit call of the paper
# Run Parameters: 20 µM; 24 h
Give only the figure.

>>> recorded_value("CC(C)(NC(=O)NCc1ccccc1Cl)c1ccccc1")
1.04
>>> recorded_value("Cc1cc(C2CC2)nc(Nc2ccc(O)cc2)n1")
0.989
>>> recorded_value("CCc1cccc(C)c1N(C(=O)C(=O)O)[C@@H](C)C(=O)O")
1.01

**Query** Value wanted: growth AUC (Escherichia coli ED1a) of entry CC(C)([CH2][Sn]([CH2]C(C)(C)c1ccccc1)([CH2]C(C)(C)c1ccccc1)[O][Sn]([CH2]C(C)(C)c1ccccc1)([CH2]C(C)(C)c1ccccc1)[CH2]C(C)(C)c1ccccc1)c1ccccc1
**Result** 0.999
